test system: Saccharomyces cerevisiae; assay: transcriptional activation domain activity (GFP:mCherry ratio, weighted mean of sorted bins, harmonized to initial dataset scale) (arbitrary fluorescence ratio units); higher = stronger transcriptional activation; conditions: beta-estradiol 1 µM; induction time 4 h
ENDPOINT: transcriptional activation domain activity
# output: bare number, no unit

Recorded transcriptional activation domain activity for MSSMHKLVTIFTGQGRVLSFFSLCVLRGLYYYSLLLRYLYFTLLVFFLSLFPF , please?
49100

Another sequence to look at: KKNRHGKFAYSDRYNLSEYIIEQLSEYDDIDLVKPWHRKLMLLHPFVILWVFF
60600

Another sequence to look at: MHVAYFMVLFFFIVLIDAHLVVPYIFDVELLTYMLNDAFKFDLFGCFCKVIVI
68900

Another sequence to look at: SRAKVCGWADVFMVIAMHCLLGWSVTMTLYALRGGTRHIWDLEPLGVDNLIKA
35200

Another sequence to look at: PSLLVLAAHTLAKHGVLAPMSTLITRFLELPFQIKRPQLYYNLLLHAISRFPS
70100

Another sequence to look at: RFYVYLLILLGCIIWINQCQYATDRSGYQRGHSAVLRALFYRLCRLLQTAITP
35000

Another sequence to look at: KKEEVKQEPTPAAAPEASTSDRGRGRGRGRGEGRGRGDGTRGRGRGGARPAGP
34900

Another sequence to look at: MFIYVFRPCNCIHLFIICQFSLFLITLLLYLFDLFFQLPFLLCINLTFCVAMC
64900

Another sequence to look at: SIDSAAHHDNSTIPLDFMPRDALHGFDWSEEDDMSDGLPFLKTDPNNNGFFGD
69800

* * *

system: Saccharomyces cerevisiae; assay: transcriptional activation domain activity (GFP:mCherry ratio, weighted mean of sorted bins, harmonized to initial dataset scale) (arbitrary fluorescence ratio units); higher = stronger transcriptional activation; conditions: beta-estradiol 1 µM; induction time 4 h
So I've got a bunch of sequences here, and I need their transcriptional activation domain activity values.
# output: bare number, no unit

Recorded transcriptional activation domain activity for MTWRGLSLLLSVLLITWCDPAFFPPVYIQFLFIFIFAWLHLIFLFLIQYLGCI , please?
37900

Another sequence to look at: IIKSLVGCLFFVLCPIVLVHSTSCYPRILYPLSYLLFLFWVPHLLFACRVTFT
56400

Another sequence to look at: SRTTSLGVWFLVIQMIWYGLFGALYIWFFCQDWYLFDVHLVFDYLMRFILCLM
40700

Another sequence to look at: FAFLAPFFCFLFYMSMGFFRLFLFCFLGFGTFVVFNLILVPAFSLYLNHVYLL
68100

Another sequence to look at: TNNEFEGESDDFVHSPYLNSEADFSQILSSAPPVHHDPNETHQENQDIIDRFA
66800

Another sequence to look at: AMERLRAAEKTAKEKRLCLYANAPAANSSSKGTTAATSRGGAFEATVVRVWSG
61100

Another sequence to look at: PKEDVQPEPEAQPAESVEAAPASEEQAPVEKTEEAPATEETEESRPSPPAARL
37600

Another sequence to look at: EGEKKDQESDEKESNEEKKDDVEKLTKEMDKVTIKGEKKILGKSKGFGFVCFS
7730

Another sequence to look at: EAARKETDAEGVRKTKVKKSRKRKAPEDGLEADEEGAARRTARARKTPAEAEA
28700

Another sequence to look at: MFCLRSWIPVLFFLLRTHASPIYLVLFISATYFLNRPCVYCSLLLFILVVALF
61100

Another sequence to look at: MFTFNASSTINITLSILCYFIFLISVLLIRLYLNNSFMLFSLFFFFYFIYVIL
61200

Another sequence to look at: KRHLPWPWNGERLIFILQDVWVPNFNEHHLLWTLDLKRKGLTFIALTNVWGIY
50300

Another sequence to look at: LLYVMALLMWLFAIAILFPPSALTVVRHDFLEQIPQVVPNLDVAYGRNIEGVK
41800

Another sequence to look at: RPQSKERGGRREDGAGTDEGDSSTHPSCSSHVGRQEGVFQTVQCKHYWVVKWE
49900

Another sequence to look at: MAPKAPEASPPKRGRGRPRKAESEKKTKAYEPTGRPRGRPKGSGGVKKSVAAT
19600

Another sequence to look at: IEDQTKYVTQAYLAATRIVTIISKLVETRHLIELPIYIRQSVTYAVLILFRLH
56400

Another sequence to look at: KNNNREVEVEAREPHHKGRKNNKREVGEVEARDPHHKGRKNNKREVEVEAREP
52900

Another sequence to look at: DPPPHPSCPPGSLIIKMVVYLRRRRLLVTWCEDPSVPEVRCLVVATQSQWVPM
55300

Another sequence to look at: MIITFYTFFSFFPFFISFSLSLFSLRYFFFFFSFLSLSFFFFLFFLILIHLFL
14400

Another sequence to look at: VSVSLIFFTCFLSLSLFFCVLVRVSWLSVPVPSIVFFWISFLLFCPFFPFSFF
35700
